The measurements presented in this section are drawn from patent US20240101668A1.

- target-system: T1, huCD33-G69 stably expressed on Jurkat cells (human, UniProt P20138 18-364)
- T1 construct: whole, on cells; >200,000 receptors per cell; also called CD33 Mutant; CD33 R69G
- T1 sequence (P20138 18-364 R69G): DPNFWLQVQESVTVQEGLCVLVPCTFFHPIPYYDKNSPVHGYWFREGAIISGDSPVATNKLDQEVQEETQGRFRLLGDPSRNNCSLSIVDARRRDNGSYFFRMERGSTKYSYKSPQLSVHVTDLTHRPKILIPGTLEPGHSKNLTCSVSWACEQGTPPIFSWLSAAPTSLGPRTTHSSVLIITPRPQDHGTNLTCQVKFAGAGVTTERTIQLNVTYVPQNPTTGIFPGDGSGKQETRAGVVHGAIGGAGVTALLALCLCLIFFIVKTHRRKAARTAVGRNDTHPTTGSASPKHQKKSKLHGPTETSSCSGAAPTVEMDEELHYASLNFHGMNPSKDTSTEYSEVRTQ
- experiment-summary: FACS on cells;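 note: fixed Jurkat lines probed with myc-tagged scFv periplasmic extracts, anti-myc PE flow cytometry, PE MFI fold binned − <2, + 2–10, ++ 10–30, +++ >30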
measured-attribute: FACS geometric mean fold change over Jurkat parental

binder	readout-value
Polypeptide No. 101 (scFv, V domains shown, scFv) VH: EVQLLESGGGLVQPGGSLRLSCAASGFTFSSYGVHWVRQAPGKGLEWVSAISGDGGDTYYADSVKGRFTISRDNSKNTLYLQMNSLRAEDTAVYYCARDTWDYSNYGGIDYWGQGTLVTVSS VL: DIQMTQSPSSLSASVGDRVTITCRASQNINTFLNWYQQKPGKAPKLLIYAASTLQSGVPSRFSGSGSGTDFTLTISSLQPEDFATYYCQQYDSFPLTFGGGTKVEIKR	> 30 fold
Polypeptide No. 123 (scFv, V domains shown, scFv) VH: EVQLLESGGGLVQPGGSLRLSCAASGFILGNAWMHWVRQAPGKGLEWVASVSGDGSDENYADSVKGRFTISRDNSKNTLYLQMNSLRAEDTAVYYCARDTHDYGDYAPFDYWGQGTLVTVSS VL: DIQMTQSPSSLSASVGDRVTITCQASQDINNYLNWYQQKPGKAPKLLIYAASNLQSGVPSRFSGSGSGTDFTLTISSLQPEDFATYYCQQTYSFPLTFGGGTKVEIKR	> 30 fold
Polypeptide No. 113 (scFv, V domains shown, scFv) VH: QVQLVQSGAEVKKPGSSVKVSCKASGGTFSSYDINWVRQAPGQGLEWMGGLIPVFGTTHYAQNFQGRVTITADESTSTAYMELSSLRSEDTAVYYCATGLGVTTSNYYYGMDVWGQGTLVTVSS VL: DIQMTQSPSSLSASVGDRVTITCRASQGIRNDIGWYQQKPGKAPKLLIYAASTLQSGVPSRFSGSGSGTDFTLTISSLQPEDFATYYCQQTYMMPYTFGQGTKLEIKR	10 to 30 fold
Polypeptide No. 90 (scFv, V domains shown, scFv) VH: EVQLLESGGGLVQPGGSLRLSCAASGFTFSNSDMNWVRQAPGKGLEWVSYISGTGSTIYYADSVKGRFTISRDNSKNTLYLQMNSLRAEDTAVYYCAKDYDSSYGSGYYGMDVWGQGTTVTVSS VL: DIQMTQSPSSLSASVGDRVTITCRASQSIYNYLNWYQQKPGKAPKLLIYAASNLQSGVPSRFSGSGSGTDFTLTISSLQPEDFATYYCQQYGNAPLTFGQGTKVEIKR	> 30 fold

Here is another binder to look at.
IN: Using the record for Polypeptide No. 138 (scFv, V domains shown, scFv) VH: QVQLVQSGAEVKKPGASVKVSCKASGYTFSSYDMHWVRQAPGQGLEWMGVINPGGGYTNYAQKFQGRVTMTRDTSTSTVYMELSSLRSEDTAVYYCARDEGWELLLDYWGQGTLVTVSS VL: EIVMTQSPATLSVSPGERATLSCRASQSVGSNLAWYQQKPGQAPRLLIYGASTRATGIPARFSGSGSGTEFTLTISSLQSEDFAVYYCQQSHSLPPTFGQGTRLEIKR , report its FACS geometric mean fold change over Jurkat parental.
OUT: 10 to 30 fold
